Data provenance: ChEMBL document CHEMBL4251723

Please provide measured MIC for the entries that follow.
- Tested on: Enterococcus faecalis
- experiment description: Antibacterial activity against Enterococcus faecalis ATCC 10541
- Assay type: functional
The answer is to be given in µM; state only the numeric part.

Ask: Returns the measured MIC for the input compound. Input: C=C(CCC=C(C)C)C(O)Cc1c(O)c(CC2=C(O)C(C)(C)C(O)=C(C(=O)C(C)C)C2=O)c(O)c(C(=O)C(C)C)c1O (stereo not drawn)
Result: 0.9

Ask: Find the recorded MIC belonging to CCC(C)C(=O)C1=C(O)C(C)(C)C(O)=C(Cc2c(O)cc(OCC=C(C)C)c(C(=O)c3ccccc3)c2O)C1=O (stereo not drawn) and report it.
Result: 1.8

Ask: Which MIC is reported for this compound? CCC(C)C(=O)C1=C(O)C(C)(C)C(O)=C(Cc2c(O)c(C/C=C(\C)CCC=C(C)C)c(O)c(C(=O)C(C)C)c2O)C1=O (stereo not drawn)
Result: 1.7

Ask: Query: MIC; subject: CC(C)=CCC[C@]1(C)Oc2c(c(O)c(CC3=C(O)C(C)(C)C(O)=C(C(=O)C(C)C)C3=O)c(O)c2C(=O)C(C)C)C[C@H]1O
Result: 10.7

Ask: Item under review: CC(C)=CCOc1cc(O)c(CC2=C(O)C(C)(C)C(O)=C(C(=O)C(C)C)C2=O)c(O)c1C(=O)c1ccccc1 . Reported MIC?
Result: 1.9

Ask: Given the entry CC(C)=CCC/C(C)=C/Cc1c(O)c(CC2=C(O)C(C)(C)C(O)=C(C(=O)C(C)C)C2=O)c(O)c(C(=O)C(C)C)c1O , report its measured MIC.
Result: 1.8

Ask: // MIC lookup, key: C=C(CCC=C(C)C)C(O)Cc1c(O)c(CC2=C(O)C(C)(C)C(O)=C(C(=O)C(C)CC)C2=O)c(O)c(C(=O)C(C)C)c1O (stereo not drawn)
Result: 0.8

Ask: Would you kindly share the measured MIC for CO/N=C(\C(=O)N[C@@H]1C(=O)N2C(C(=O)O)=C(COC(C)=O)CS[C@H]12)c1csc(N)n1 [CEFOTAXIME SODIUM] ?
Result: 0.4
